Measured % Block at 0.000128 nM accompanies every entry in the list below.
- ASSAY TARGET: T1, CTLA-4-hFc (immunogen A; hFc-labeled CTLA-4 extracellular domain protein) (human, UniProt P16410 36-161)
- T1 construct: range 36-161; Made in HEK293 cells, purified on protein A; also called CLTA-4-hFc; CTLA-4 protein; not shown: human IgG Fc fragment (hFc) of the pCpC vector
- T1 sequence (looked up): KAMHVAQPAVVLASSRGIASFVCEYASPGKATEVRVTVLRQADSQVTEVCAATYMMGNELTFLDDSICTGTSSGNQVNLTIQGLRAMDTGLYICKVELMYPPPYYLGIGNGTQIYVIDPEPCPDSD
- ASSAY REMARKS: blocking assay, CTLA-4 protein, competitor B7.1
Report the figure along with its unit, number first.

92C8B6 fully human CTLA-4 antibody (human IgG1, kappa) (antibody, V domains shown, also called mAb42; mAb042) VH: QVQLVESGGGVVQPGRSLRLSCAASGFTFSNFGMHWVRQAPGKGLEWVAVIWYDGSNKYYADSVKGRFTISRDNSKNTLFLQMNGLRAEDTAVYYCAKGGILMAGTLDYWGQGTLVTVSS VL: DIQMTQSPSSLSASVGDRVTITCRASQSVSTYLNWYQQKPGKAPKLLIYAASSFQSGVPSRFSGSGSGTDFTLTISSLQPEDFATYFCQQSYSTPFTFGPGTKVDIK ... 0%
31C12F3 fully human CTLA-4 antibody (human IgG1, kappa) (antibody, V domains shown, also called mAb010) VH: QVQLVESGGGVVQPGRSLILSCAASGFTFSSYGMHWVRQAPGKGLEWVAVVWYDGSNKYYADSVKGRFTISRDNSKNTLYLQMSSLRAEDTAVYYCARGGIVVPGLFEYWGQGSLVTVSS VL: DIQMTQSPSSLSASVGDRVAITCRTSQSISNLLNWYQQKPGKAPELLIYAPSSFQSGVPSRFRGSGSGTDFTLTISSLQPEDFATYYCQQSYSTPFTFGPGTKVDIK ... 0%
97A8D1 fully human CTLA-4 antibody (human IgG1, kappa) (antibody, V domains shown, also called mAb49; mAb049) VH: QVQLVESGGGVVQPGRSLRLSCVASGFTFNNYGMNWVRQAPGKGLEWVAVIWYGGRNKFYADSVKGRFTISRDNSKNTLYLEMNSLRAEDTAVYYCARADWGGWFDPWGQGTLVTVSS VL: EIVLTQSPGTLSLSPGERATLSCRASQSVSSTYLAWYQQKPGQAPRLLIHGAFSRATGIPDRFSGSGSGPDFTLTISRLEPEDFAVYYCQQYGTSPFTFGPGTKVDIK ... 0%

Consider the binder 40C4C6 fully human CTLA-4 antibody (human IgG1, kappa) (antibody, V domains shown, also called mAb09; mAb009) VH: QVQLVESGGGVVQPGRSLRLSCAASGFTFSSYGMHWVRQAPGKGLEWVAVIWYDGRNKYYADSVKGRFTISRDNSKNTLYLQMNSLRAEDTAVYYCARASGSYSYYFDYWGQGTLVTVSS VL: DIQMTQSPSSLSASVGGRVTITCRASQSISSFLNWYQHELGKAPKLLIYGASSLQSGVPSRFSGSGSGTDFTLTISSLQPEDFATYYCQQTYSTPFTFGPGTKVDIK and give its measured % Block at 0.000128 nM.
0%
